B1: Membrane-associated guanylate kinase, WW and PDZ domain-containing protein 2, residues 296 to 340; numbered along this chain, Q86UL8 (parent)
chain: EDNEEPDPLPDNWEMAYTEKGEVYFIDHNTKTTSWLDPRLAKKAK

Variants of: B1
Experiment description: abundance fitness (aPCA) (normalised: wild type 0, dead -1); higher = more abundant; growth selection in yeast, the domain comes from the species named
Condition context: Homo sapiens
Classes are defined on abundance fitness with ranges LOW: < -0.5; MID: ≥ -0.5 and < -0.08; HIGH: ≥ -0.08

T33D    LOW
E22F    LOW
N29P    LOW

## Task Lab log: `T32K` — assign abundance fitness category
## Result MID

## Task Assign a bin to `P10N`
## Result MID

## Task Classify this variant: `Y17A`
## Result HIGH

## Task Which of the defined bands does the recorded abundance fitness of `E1P` sit within?
## Result HIGH

## Task Which of the defined bands does the recorded abundance fitness of `E19D` sit within?
## Result HIGH

## Task Please report the category associated with `P10L` , nothing else.
## Result MID

## Task // return the class label for `P8D`
## Result MID
